- Test system: MCF7
- experimentNotes: Cytotoxicity against human MCF7 cells after 48 hrs by MTT assay
- Format: functional, cell-based
- measurementSetup: MCF7, 48 h
quantityKind: pIC50
Lab note: report pIC50 as minus log10 of the concentration in molar units, number only.

Challenge: // fetch MCF7 pIC50 for O=C(C[n+]1ccn(Cc2c(-c3ccccc3)oc3ccccc23)c1)c1ccc(Br)cc1
Response given: 5.44

Challenge: Repeat for the following compound: Brc1ccccc1C[n+]1cnn(Cc2c(-c3ccccc3)oc3ccccc23)c1
Response given: 4.79

Challenge: Note, next up: CCc1n(Cc2c(-c3ccccc3)oc3ccccc23)cc[n+]1CC(=O)c1ccc(Br)cc1
Response given: 5.54
